Experiment: chemical genetic growth profiling, strain panel (AID 1159580);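 further: tested at 20 µM; growth read once vehicle control cultures reached saturation at 30 °C; 1 = growth at the plate median or of vehicle wells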
Conditions: S. cerevisiae deletion strains, growth OD, locus YOR083W, strain WHI5 (second series)
The campaign covered roughly 5,500 compounds. About 2,000 (36%) were called active. Roughly 18% stayed inconclusive and do not appear here. No stated cut-off is given here; in the data, active means normalized growth mostly below about 0.91 (no sharp cut-off); inconclusive means no clear call, values can overlap the other calls; inactive means mostly above about 0.92. The list shows a part of the results.
Labels: Yes (active), No (inactive)

| compound | class |
| --- | --- |
| CCC1(c2ccc(N)cc2)CCC(=O)NC1=O (stereo not drawn) | No |
| CCOC(=O)C1=C(C)NC(=S)NC1c1cccc(O)c1 (stereo not drawn) | No |
| COC(=O)c1c(C)[nH]c(C)c1C(=O)c1ccccc1Cc1ccccc1 | No |
| CC(=O)SCC[N+](C)(C)C | No |
| O=c1[nH]c2ccccc2c2ccccc12 | No |
| C[N+](C)(C)CC(=O)O | No |
| C[C@H](NC(=O)/C(C#N)=C/c1ccc(O)c(O)c1)c1ccccc1 | No |
| O=Nc1ccc2oc(=O)ccc2c1 | No |
| Nc1nc2ccc(Cl)cc2c2nc(-c3ccco3)nn12 | Yes |
| NC(=O)COc1c(F)cc(SCCNS(=O)(=O)c2ccccc2)cc1F | No |
| NC/C=C/C(=O)O | No |
| CCCCCCCCCCCCCCCCCCOC[C@H](COP(=O)([O-])OCC[N+](C)(C)C)OC | No |
| O=C(O)[C@H]1NCCC[C@H]1C(=O)O | No |
| CC1CCN=C(N)S1 (stereo not drawn) | No |
| OC[C@H]1NC[C@@H](O)[C@@H]1O | No |
| CCCC(=O)NCCc1c2n(c3ccc(OC)cc13)Cc1ccccc1-2 | Yes |
| Oc1ccc(O)cc1 | No |
| Cc1cccc(C#Cc2ccccc2)n1 | No |
| O=C(O)[C@@H]1C[C@H](C(=O)O)N1 | No |
| CC(N)Cc1c[nH]c2ccc(O)cc12 (stereo not drawn) | No |
| N#CC(Cc1ccc(O)c(O)c1)C(=O)N1CCc2ccccc21 (stereo not drawn) | No |
| O[Si](CCCN1CCCCC1)(c1ccc(F)cc1)C1CCCCC1 (stereo not drawn) | No |
| CCCN1CCC[C@@H]2Cc3nc(N)ncc3C[C@H]21 | No |
| Nc1cc(Cl)c(NC2=NCCN2)c(Cl)c1 | No |
| O=C(O)c1cc(=O)c2ccc(Cl)cc2[nH]1 | No |
| CNC1(C)C2CCC(C2)C1(C)C (stereo not drawn) | No |
| C1CCc2nnnn2CC1 | No |
| N[C@@H](CS(=O)O)C(=O)O | No |
| COc1cc(C(O)C(=O)O)ccc1O (stereo not drawn) | No |
| CC(C)Oc1cccnc1N(C)C1CCN(Cc2ccccc2)CC1 | No |
| C[C@H]1OC[C@@H](C[N+](C)(C)C)O1 | No |
| CCCCCCCCCCCCC/C=C/[C@@H](O)[C@@H](N)CO | No |
| CC(C)C[C@H]1C(=O)N2CCC[C@H]2[C@]2(O)O[C@](NC(=O)[C@@H]3C=C4c5cccc6[nH]c(Br)c(c56)C[C@H]4N(C)C3)(C(C)C)C(=O)N12 | No |

---

Experiment: chemical genetic growth profiling, strain panel (AID 1159580);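 further: tested at 20 µM; growth read once vehicle control cultures reached saturation at 30 °C; 1 = growth at the plate median or of vehicle wells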
Conditions: S. cerevisiae deletion strains, growth OD, locus YHR027C, strain rpn1, stronger effect = lower value
Among all 5,500 compounds or so, about 2,000 (36%) were called active. About 18% were inconclusive and are not listed. This is one part of the list.

| molecule | normalized growth |
| --- | --- |
| COc1cc(OC)c2c(c1)O[C@H](c1ccc(OC)c(OC)c1)[C@@H](O)C2 | 0.983 |
| C[N+](C)(C)CC(=O)[O-] | 0.983 |
| COc1c2c(c(CC=C(C)C)c3oc(=O)c(-c4ccc(O)cc4)c(O)c13)OC(C)(C)C=C2 | 0.942 |
| COc1ccc2cc1Oc1ccc(cc1)C[C@H]1c3c(cc4c(c3Oc3cc5c(cc3OC)CCN(C)[C@@H]5C2)OCO4)CCN1C | 0.996 |
| CCC1(c2ccccc2)C(=O)NCNC1=O | 1.01 |
| CC(C(=O)O)c1ccc2c(c1)[nH]c1ccc(Cl)cc12 (centres undefined) | 0.991 |
| COc1cc(O)c(C(=O)c2ccccc2)cc1O | 1.02 |
| N=c1nc(N2CCCCC2)cc(N)n1O | 0.976 |
| CCc1nc(N)nc(N)c1-c1ccc(Cl)cc1 | 0.976 |
| COc1ccc(C[C@H]2NC[C@H](O)[C@H]2OC(C)=O)cc1 | 0.717 |
| COc1ccc2c(c1)OC[C@@H](Cc1ccc(OC)c(OC)c1)[C@H]2O | 0.999 |
| NC[C@@H]1O[C@H](O[C@@H]2[C@@H](CO)OC(O[C@@H]3[C@@H](O)[C@H](N)C[C@H](N)[C@H]3OC3O[C@H](CN)[C@@H](O)[C@H](O)[C@H]3N)[C@@H]2O)[C@H](N)[C@@H](O)[C@@H]1O (some centres undefined) | 1.03 |
| CNc1ccccc1C(=O)N1CCc2c([nH]c3ccccc23)C1=O | 0.991 |
| OCC(O)Cc1ccc2c(c1)OCO2 (centres undefined) | 1 |
| C1CCc2nnnn2CC1 | 1.01 |
| CCCCCC(C)N (centres undefined) | 1.02 |
| COc1ccc(C(=O)c2ccccc2O)c(O)c1 | 0.883 |
| CC(=O)O[C@H]1C(=O)[C@@]2(C)C([C@H](OC(=O)c3ccccc3)[C@]3(O)C[C@H](O)C(C)=C1C3(C)C)[C@]1(OC(C)=O)CO[C@@H]1C[C@@H]2O (some centres undefined) | 1 |
| C[C@@H](N)CO | 0.995 |
| CCSC(=N)N | 1.02 |
| O=c1ccc2cc(O)c(O)cc2o1 | 0.973 |
| COc1ccc2c(c1)OC[C@@H](Cc1ccc(OC)c(OC)c1)[C@@H]2O | 1.02 |
| CN1CCCC(n2nc(Cc3ccc(Cl)cc3)c3ccccc3c2=O)CC1 (centres undefined) | 0.944 |
| CCCCOc1ccc(CC(=O)NO)cc1 | 1.01 |
| OCc1ccccc1O[C@@H]1O[C@H](CO)[C@@H](O)[C@H](O)[C@H]1O | 0.959 |
| COC(=O)C1[C@H]2C[C@H]3c4[nH]c5ccccc5c4CCN3C[C@@H]2CC[C@@H]1O (some centres undefined) | 0.972 |
| COc1c(O)cc2oc3cc(O)c(CC=C(C)C)c(O)c3c(=O)c2c1CC=C(C)C | 0.969 |
| CCN(CC)C(=S)SSC(=S)N(CC)CC | 0.0617 |
| Cc1cccc(Nc2cc(Cl)nc(SCC(=O)O)n2)c1C | 0.987 |

---

Assay: chemical genetic growth profiling, strain panel (AID 1159580);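 further: tested at 20 µM; growth read once vehicle control cultures reached saturation at 30 °C; 1 = growth at the plate median or of vehicle wells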
Conditions: S. cerevisiae deletion strains, growth OD, locus YBR023C, strain chs3, stronger effect = lower value
About 2,000 (36%) of roughly 5,500 compounds were called active. Another 18% or so got no clear call; they are omitted. The list shows a part of the results.
Here, each record is paired with measured normalized growth data.
observedProperty: normalized growth

| molecule | observedMeasurement |
| --- | --- |
| COc1ccc(C2CC(=O)c3ccc(OC)cc3O2)cc1 (stereo not drawn) | 0.915 |
| COc1ccc2c(c1)OC[C@@H](Cc1ccc(OC)c(OC)c1)[C@@H]2O | 0.998 |
| CN1CCc2cc3c(cc2C1O)OCO3 (stereo not drawn) | 1.01 |
| O=C1C[C@@H](c2ccc(O)cc2)Oc2cc(O)cc(O)c21 | 0.955 |
| C[C@@H]1O[C@@H](O[C@H]2[C@@H](Oc3cc(O)c4c(c3)O[C@H](c3ccc(O)cc3)CC4=O)O[C@H](CO)[C@@H](O)[C@@H]2O)[C@H](O)[C@H](O)[C@H]1O | 0.978 |
| COc1c(O)cc2oc3cc(O)c(CC=C(C)C)c(O)c3c(=O)c2c1CC=C(C)C | 0.923 |
| COc1cc(OC)c2c(c1)O[C@H](c1ccc(OC)c(OC)c1)[C@@H](O)C2 | 1 |
| Cc1cc(=O)c2c(O)cc(O)c(C)c2o1 | 0.936 |
| COc1ccc2c(c1)OC[C@@H](Cc1ccc(OC)c(OC)c1)[C@H]2O | 0.999 |
| CC1(C)C2CC[C@]3(C)C(C(=O)C=C4[C@@H]5C[C@@](C)(C(=O)O)CC[C@]5(C)CC[C@]43C)[C@@]2(C)CC[C@@H]1O (stereo partly drawn) | 1.02 |
| COc1ccc([C@@H]2CC(=O)c3c(O)cc(O)cc3O2)cc1O | 0.976 |
| Cc1cc(=O)c2c(O)c(C)c(O)cc2o1 | 1.03 |
| CC1(C)C2CC[C@]3(C)C(C(=O)C=C4[C@H]5C[C@@](C)(C(=O)O)CC[C@]5(C)CC[C@]43C)[C@@]2(C)CC[C@@H]1O (stereo partly drawn) | 0.941 |

Recorded values, source PubChem BioAssay AID1159580.
